# MEASURED_ON: UniProt:P21731
# Sequence (P21731 whole entry): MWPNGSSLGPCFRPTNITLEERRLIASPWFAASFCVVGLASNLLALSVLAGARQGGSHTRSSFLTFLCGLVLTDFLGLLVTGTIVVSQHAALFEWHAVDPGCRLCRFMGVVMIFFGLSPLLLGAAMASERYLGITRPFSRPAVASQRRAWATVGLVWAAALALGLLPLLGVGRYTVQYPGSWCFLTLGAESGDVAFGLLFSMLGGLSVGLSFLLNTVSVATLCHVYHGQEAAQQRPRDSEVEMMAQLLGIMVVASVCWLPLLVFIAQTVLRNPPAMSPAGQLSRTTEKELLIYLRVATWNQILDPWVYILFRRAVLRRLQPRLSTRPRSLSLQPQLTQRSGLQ
# Type: functional, cell-based
MEASURED_ATTRIBUTE: AC50

Field AC50 (entry O=C(Oc1ccccc1C(=O)O)c1ccccc1O [SALSALATE] ) reads > 30 µM

Field AC50 (entry `c1cc(CN2CCCNCCNCCCNCC2)ccc1CN1CCCNCCNCCCNCC1` ) reads > 30 µM

Field AC50 (entry `CO[C@H]1[C@@H](O)C[C@H](O[C@H]2[C@@H](O)C[C@H](O[C@H]3[C@@H](O)C[C@H](O[C@H]4CC[C@@]5(C)[C@H](CC[C@@H]6[C@@H]5C[C@@H](O)[C@]5(C)[C@@H](C7=CC(=O)OC7)CC[C@]65O)C4)O[C@@H]3C)O[C@@H]2C)O[C@@H]1C` ) reads > 30 µM
